biological target: T1, IFN-αWA (human, UniProt P05015 24-189); test: ProteOn SPR, cell supernatant;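 also: each binding measurement used just a single antigen concentration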
T1 construct: Recombinant, HEK293; also called IFN-α16
For each record, write down the corresponding Kd.

Ask: Look up Kd for this binder: IFWM3400 (antibody, IgG1, V domains shown, mAb; IgG1/kappa said of the parent and of selected mAbs; also called IFWB3135) VH: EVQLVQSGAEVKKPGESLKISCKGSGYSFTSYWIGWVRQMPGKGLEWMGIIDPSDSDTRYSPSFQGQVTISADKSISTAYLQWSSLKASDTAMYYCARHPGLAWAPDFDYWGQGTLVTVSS VL: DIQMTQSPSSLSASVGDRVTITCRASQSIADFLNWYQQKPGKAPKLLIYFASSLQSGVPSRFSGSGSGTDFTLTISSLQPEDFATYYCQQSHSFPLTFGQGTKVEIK
Reply: 0.049 nM

Ask: Look up Kd for this binder: IFWM3407 (antibody, IgG1, V domains shown, mAb; IgG1/kappa said of the parent and of selected mAbs; also called IFWB3142) VH: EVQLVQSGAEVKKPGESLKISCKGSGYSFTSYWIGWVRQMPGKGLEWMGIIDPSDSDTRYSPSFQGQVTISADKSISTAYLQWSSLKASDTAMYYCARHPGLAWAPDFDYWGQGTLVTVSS VL: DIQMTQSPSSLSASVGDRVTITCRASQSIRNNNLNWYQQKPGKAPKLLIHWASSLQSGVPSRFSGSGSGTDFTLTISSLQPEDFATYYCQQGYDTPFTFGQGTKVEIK
Reply: 0.06 nM

Ask: Look up Kd for this binder: IFWM3405 (antibody, IgG1, V domains shown, mAb; IgG1/kappa said of the parent and of selected mAbs; also called IFWB3140) VH: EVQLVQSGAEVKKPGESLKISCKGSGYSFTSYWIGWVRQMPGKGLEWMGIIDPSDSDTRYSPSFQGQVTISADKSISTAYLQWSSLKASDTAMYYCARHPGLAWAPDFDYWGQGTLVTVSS VL: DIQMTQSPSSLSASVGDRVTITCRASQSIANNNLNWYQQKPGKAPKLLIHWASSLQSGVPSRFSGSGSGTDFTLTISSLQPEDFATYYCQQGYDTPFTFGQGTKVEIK
Reply: 0.039 nM

Ask: Look up Kd for this binder: IFWM3293 (antibody, IgG1, V domains shown, mAb; IgG1/kappa said of the parent and of selected mAbs; also called IFWB3028) VH: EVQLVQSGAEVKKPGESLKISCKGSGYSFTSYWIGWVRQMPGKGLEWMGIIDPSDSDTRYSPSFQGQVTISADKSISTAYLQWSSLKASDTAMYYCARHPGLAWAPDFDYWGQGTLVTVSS VL: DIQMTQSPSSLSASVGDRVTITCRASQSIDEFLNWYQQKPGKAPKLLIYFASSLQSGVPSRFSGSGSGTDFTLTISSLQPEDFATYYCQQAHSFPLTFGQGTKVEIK
Reply: 0.046 nM

Ask: Look up Kd for this binder: IFWM3409 (antibody, IgG1, V domains shown, mAb; IgG1/kappa said of the parent and of selected mAbs; also called IFWB3144) VH: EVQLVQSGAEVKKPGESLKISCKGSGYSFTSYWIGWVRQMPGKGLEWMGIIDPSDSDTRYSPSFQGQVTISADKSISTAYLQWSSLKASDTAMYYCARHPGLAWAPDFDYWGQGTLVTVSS VL: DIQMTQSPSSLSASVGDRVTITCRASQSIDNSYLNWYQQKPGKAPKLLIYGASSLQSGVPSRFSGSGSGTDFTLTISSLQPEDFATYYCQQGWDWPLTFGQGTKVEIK
Reply: 0.025 nM
